# experimental-target: T1, Cynomolgus OSM (cynomolgus, UniProt A0A2K5VPC6 26-221)
# T1 construct: also called Cyno OSM; cynomolgus macaque OSM
# T1 sequence: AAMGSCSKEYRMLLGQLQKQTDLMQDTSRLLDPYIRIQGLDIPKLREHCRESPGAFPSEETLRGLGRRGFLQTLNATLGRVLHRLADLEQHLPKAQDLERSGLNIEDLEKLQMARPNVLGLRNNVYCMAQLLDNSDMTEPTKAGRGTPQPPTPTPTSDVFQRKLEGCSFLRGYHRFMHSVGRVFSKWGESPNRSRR
# method-description: BIAcore kinetics
Measured pKd, listed per entry.
Notebook: values listed as pKd are -log10 of the concentration (mol/L).

Solved cases below.
Q. # lookup: pKd of 9G2 chimaera (antibody, human IgG1, kappa, V domains shown, Mouse V regions on human gamma 1 wild type and human kappa constant regions; also called 9G2 chimera) VH: EVQLVESGGGLVEPGGSLKLSCAASGFTFSNYAMSWVRQTPEKRLEWVATISDGGSFTYYLDNVKGRFTISRDNAKNNLYLQMSHLKSDDTAMYYCARDVGHTTFWYFDVWGTGTLVTVSS VL: DIVLTQSPVFLVISLGQRATISCRASKSVSASGYNFMHWYQQKPGQPPKVLIKYASNLESGVPARFSGSGSGTDFTLNIHPVEEEDAVTYYCQHSREFPFTFGGGTKLEIKR
A. 9.10

Q. Same question, anti human OSM mAb S168110G08(1)1A09 (10G8), murine (antibody, V domains shown, Mouse hybridoma mAb; also called 10G8/A9; 10G8.A9) VH: EMQLVESGEGLVEPGGSLKLSCAASGFTFSNYAMSWVRQTPEKSLEWVATISDGGSFTYYLDNVRGRFTISRDNAKNNLYLQMSHLKSDDTAMYYCARDVGHTTFWYFDVWGSGTAVTVSS VL: DIVLTQSPVFLVVSLGQRATISCRASKSVSAAGYNFMHWYQQKPGQPPKVLIKYASNLESGVPARFSGSGSGTDFTLNIHPVEEEDAVTYYCLHSREFPFTFGGGTNLEIK this time
A. 9.51

Q. Same question, 10G8 chimaera (antibody, human IgG1, kappa, V domains shown, Mouse V regions on human gamma 1 wild type and human kappa constant regions; the entries called VH/VL domain (chimera) are full chains; also called 10G8 chimera; 10G8 Chimæra) VH: EMQLVESGEGLVEPGGSLKLSCAASGFTFSNYAMSWVRQTPEKSLEWVATISDGGSFTYYLDNVRGRFTISRDNAKNNLYLQMSHLKSDDTAMYYCARDVGHTTFWYFDVWGSGTLVTVSS VL: DIVLTQSPVFLVVSLGQRATISCRASKSVSAAGYNFMHWYQQKPGQPPKVLIKYASNLESGVPARFSGSGSGTDFTLNIHPVEEEDAVTYYCLHSREFPFTFGGGTNLEIKR this time
A. 9.32

Attention now turns to another entry.
Q. # lookup: pKd of 9G2, murine anti-OSM mAb (antibody, V domains shown, Mouse hybridoma mAb; also called 9G2/C1; 9G2.C1) VH: EVQLVESGGGLVEPGGSLKLSCAASGFTFSNYAMSWVRQTPEKRLEWVATISDGGSFTYYLDNVKGRFTISRDNAKNNLYLQMSHLKSDDTAMYYCARDVGHTTFWYFDVWGTGTTVTVSS VL: DIVLTQSPVFLVISLGQRATISCRASKSVSASGYNFMHWYQQKPGQPPKVLIKYASNLESGVPARFSGSGSGTDFTLNIHPVEEEDAVTYYCQHSREFPFTFGGGTKLEIK
A. 9.11
